- tested.on: CTDSP1 (Homo sapiens, UniProt Q9GZU7)
- Construct: GSGS linker + His6 (C)
- Sequence (Q9GZU7 with tags, fused parts or gaps): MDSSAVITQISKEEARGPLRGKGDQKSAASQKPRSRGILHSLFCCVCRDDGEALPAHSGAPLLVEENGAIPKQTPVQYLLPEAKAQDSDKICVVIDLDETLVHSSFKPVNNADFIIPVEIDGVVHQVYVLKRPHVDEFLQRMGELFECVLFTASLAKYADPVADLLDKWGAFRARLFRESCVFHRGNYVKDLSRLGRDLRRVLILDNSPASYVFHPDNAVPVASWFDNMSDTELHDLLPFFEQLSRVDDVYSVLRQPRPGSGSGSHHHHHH
- run.description: In vitro CTDSP1 phosphatase activity on phosphorylated REST peptide
- Type: biochemical
- run.conditions: 1 μM peptide-GST fusion; relative to GST control; substrate TEDpSPPpSPPLPKEN
Relative Phosphatase activity listing for selected sequences.
I only need the number, thanks.

Could you tell me which Relative Phosphatase activity is on file for MCAEDLQPPPLLEAHCGSDSGRKKRRQC [v43] ?
0.97

// repeat for MCIADPEPPEAQLPEGNC [v14] and report
0.54

// repeat for MCTEDLQSPKTTMTKENC [v7] and report
0.24

====

- tested.on: CTDSP1 (Homo sapiens, UniProt Q9GZU7)
- Construct: GSGS linker + His6 (C)
- Sequence (Q9GZU7 with tags, fused parts or gaps): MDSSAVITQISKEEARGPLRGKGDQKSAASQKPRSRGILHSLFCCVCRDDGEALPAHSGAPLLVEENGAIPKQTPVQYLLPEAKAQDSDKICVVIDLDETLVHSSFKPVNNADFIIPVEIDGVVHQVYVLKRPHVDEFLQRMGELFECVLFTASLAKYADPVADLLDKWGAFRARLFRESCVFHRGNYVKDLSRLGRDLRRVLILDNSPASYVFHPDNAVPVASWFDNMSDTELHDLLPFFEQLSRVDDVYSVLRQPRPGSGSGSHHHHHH
- run.description: In vitro CTDSP1 phosphatase activity on phosphorylated REST peptide
- Type: biochemical
- run.conditions: 1 μM peptide-GST fusion; relative to GST control; substrate TEDpSPPpSPPLPKEN
Relative Phosphatase activity listing for selected sequences.
I only need the number, thanks.

Check out these entries, answers already filled in.
sequence.string | Relative Phosphatase activity
MCTEDQERPPVTKEDC [v13] | 0.20
MCTGDLQPPKTTVSKKDC [v6] | 0.77
MCSVDLQPPARLRPMVNC [v20] | 0.13
MCTEAPAPPEPALPKKKKKNC [v2] | 0.66
MCTEDLEPPKATMTKKDC [v12] | 0.41
MCTADLQPPEASLPQQNC [v49] | 0.58

We now examine a further sequence.
Form entry - test system: CTDSP1 (Homo sapiens, UniProt Q9GZU7); read-out: Relative Phosphatase activity; sequence: MCTGDLKLPEPPMSKKKKKNC [v29]
0.17
